# TARGET OF ASSAY: T1, SNTB1, Q13884
# T1 sequence (Q13884 107-205, limits assumed, looked up): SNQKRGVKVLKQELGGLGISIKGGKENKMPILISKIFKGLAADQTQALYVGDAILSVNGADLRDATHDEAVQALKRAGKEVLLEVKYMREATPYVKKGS
# PROTOCOL SUMMARY: holdup assay
# Parameters: key: below the threshold = too weak to quantify, mostly under pKd 3.1 to 4
# CONDITION: plain residues with an end cap or a label only (N-terminal biotin on a linker: ado-ado)
READOUT NAME: pKd

Check out these entries, answers already filled in.
>>> meas_value("SARSRLSSNL [HCN2, Q9UL51]")
"below the threshold"
>>> meas_value("VDSTVKVWTC [TRAF7, Q6Q0C0]")
"below the threshold"
>>> meas_value("QSARLWETSI [ADAM22, Q9P0K1]")
4.69
>>> meas_value("HLRARKSEWV [GJD4, Q96KN9]")
"below the threshold"
>>> meas_value("QSPANIYYKV [EFNB1, P52799]")
"below the threshold"
>>> meas_value("YLEPVLSSEL [ATP2A2, P16615;P16615-3]")
"below the threshold"

Q. Look at this binder and give its reported pKd. PEYLGLDVPV [ERBB2, P04626]
A. 3.92

Q. Would you mind telling me what pKd value was observed for LKVPPEERLI [CRB2, Q5IJ48] ?
A. below the threshold

Q. For QSLNRMEYIV [JAG1, P78504] , what is its reported pKd?
A. below the threshold

Q. pKd for GSGAVEMESV [AQP6, Q13520] ?
A. below the threshold

Q. For the binder CLREWCDAFL [BANF1, O75531] , what pKd is on record?
A. below the threshold

Q. Using the record for PRISRSQSEL [CCDC134, Q9H6E4] , report its pKd.
A. below the threshold

Q. Suppose we examine the binder TLPRKRMSSI [GPRC6A, Q5T6X5] ; what pKd value has been reported?
A. below the threshold

Q. Could you tell me which pKd is on file for TSQESEDTYL [TBC1D10A, Q9BXI6] ?
A. 3.79

Q. What measured pKd goes with YYKRPVQEWV [MMP24, Q9Y5R2] ?
A. below the threshold

Q. Consider the binder shown here: SAKVRTVTSV [RASL11B, Q9BPW5] What is its recorded pKd?
A. 3.64
